Consider the following compounds and their measured viability at 10 uM readings.
# procedureDetails: Cytotoxicity: viability of M17 cells
# runParameters: human, M17 neuroblastoma cells, Cytotoxicity (% viable at 1 and 10 uM), test compound 10 uM
I only need the number, in %, no unit after it.

Here's what some known entries look like.
CCCCc1cnc2c(O)c(-c3ccc(OC)cc3)ccn2c1=O ... 64.4
O=c1c2c(Cl)cc(Cl)c(O)c2ncn1-c1ccc(F)cc1 ... 47.3
O=c1c2c(Cl)ccc(O)c2ncn1CC1CC1 ... 57.6
O=c1c2c(Cl)cc(Cl)c(O)c2ncn1Cc1nc2ccccc2[nH]1 ... 100
CC(C)Cn1cnc2c(O)c(Cl)cc(Cl)c2c1=O ... 75.6

# input Please look up its viability at 10 uM: CCN(CC)CCn1cnc2c(O)c(I)ccc2c1=O
# output 41.4

# input I would be grateful if you could share the reported viability at 10 uM for CCCS(=O)(=O)NCCn1cnc2c(O)c(I)ccc2c1=O .
# output 98.6

# input Given Cn1ccnc1Cn1cnc2c(O)c(Cl)cc(Cl)c2c1=O , state its recorded viability at 10 uM.
# output 97.6

# input Entry O=c1c2cccc(O)c2ncn1-c1cccnc1 : reported viability at 10 uM = ?
# output 110

---

Recorded viability at 1 uM, one value per entry.
# procedureDetails: Cytotoxicity: viability of M17 cells
# runParameters: human, M17 neuroblastoma cells, Cytotoxicity (% viable at 1 and 10 uM), test compound 1 uM
Write down the numeric answer in % and omit the unit.

O=c1c2ccc(I)c(O)c2ncn1Cc1ccccn1 ... 93.8
Br.CCCn1cnc2c(O)c(Cl)cc(Cl)c2c1=O ... 107
CCCCNC(=O)C1=CN=C2C(O)=C(I)C=CN2C1 ... 85.3

# input May I ask what viability at 1 uM has been recorded for CCC(C)Cn1cnc2c(O)c(Cl)cc(Cl)c2c1=O (centres unmarked) ?
# output 85.1

# input Look up viability at 1 uM: O=c1c2c(Cl)cc(Cl)c(O)c2ncn1-c1nc2ccccc2s1
# output 82.7

# input So what does the record say about viability at 1 uM for O=c1c2c(Cl)cc(I)c(O)c2ncn1Cc1ccccn1 ?
# output 102

---

# procedureDetails: Cytotoxicity: viability of M17 cells
# runParameters: human, M17 neuroblastoma cells, Cytotoxicity (% viable at 1 and 10 uM), test compound 1 uM
Listed here are compounds together with their documented viability at 1 uM.

Nc1cc(Cn2cnc3c(O)c(Cl)cc(Cl)c3c2=O)ccn1 ... 95.1%
CCc1cnc2c(O)cccn2c1=S ... 93.3%
CCNCCn1cnc2c(O)c(Cl)cc(Cl)c2c1=O ... 100%
O=c1c2cccc(O)c2ncn1-c1nc2ccc(F)cc2s1 ... 99.1%
CC(C)Cn1cnc2c(O)c(Cl)cc(Cl)c2c1=O ... 102%

# input Request the reported viability at 1 uM associated with O=c1c2ccc(I)c(O)c2ncn1-c1ccc(F)cc1
# output 94.6%

# input Reported viability at 1 uM, compound O=c1c2c(Cl)cc(Cl)c(O)c2nc2n1CCC2 : ____
# output 115%

# input If you can, please state the reported viability at 1 uM value of O=c1c2c(Cl)cc(Cl)c(O)c2ncn1Cc1cn2ccccc2n1 .
# output 109%

# input Consider the compound O=C1c2ccccc2C(=O)N1CCn1cnc2c(O)cccc2c1=O and give its measured viability at 1 uM.
# output 104%

# input Dear colleague, I am looking for the recorded viability at 1 uM of the following compound: O=C(Nc1ccc(F)cc1F)c1cnc2c(O)cccn2c1=O
# output 99.4%

# input Which measured viability at 1 uM value corresponds to O=c1c2c(Cl)cc(Cl)c(O)c2ncn1Cc1nccs1 ?
# output 96%

# input I have this compound here, O=c1c2c(Cl)cc(Cl)c(O)c2ncn1-c1ccccn1 [drawing 171] , and I need its recorded viability at 1 uM.
# output 101%

# input Report viability at 1 uM for CCNCc1ccc2c(Cl)cc(Cl)c(O)c2n1.Cl please.
# output 78.3%

# input So what's the measured viability at 1 uM for this one? Oc1c(N2CCOCC2)ncc2cccnc12
# output 112%

# input Given O=c1c2c(Cl)cc(I)c(O)c2ncn1CC1CC1 , state its recorded viability at 1 uM.
# output 97.9%

# input Bench note: what viability at 1 uM did O=C(Nc1nc2ccc(F)cc2s1)c1cnc2c(O)cccn2c1=O show?
# output 60.1%

# input What measured viability at 1 uM goes with O=c1c2c(Cl)cc(Cl)c(O)c2ncn1Cc1ccncc1 ?
# output 105%

# input Sample CCCn1cnc2c(O)c(I)ccc2c1=S — what was its viability at 1 uM?
# output 89.9%

# input Which viability at 1 uM value is on record for CCCc1cnc2c(O)c(I)ccn2c1=O ?
# output 80.8%

# input For O=c1c2cccc(O)c2ncn1CC1CC1 , what is its reported viability at 1 uM?
# output 104%

From: patent US20100069393A1
